Where these numbers come from: ChEMBL document CHEMBL4814079

MIC listing for selected compounds.
- Test system: Staphylococcus aureus
- testProtocol: Antibacterial activity against […] Staphylococcus aureus ATCC 29213 assessed as reduction in bacterial growth measured after 48 hrs by CLSI based broth microdilution method
- Format: functional

Worked cases, answers included:
sampleSmiles: O=C(Nc1ncco1)c1cc(-c2ccc(Cl)c(F)c2)ccn1
endpointValue: 128 µg/mL
--
sampleSmiles: O=C(Nc1ncco1)c1cc(-c2cccc(OC(F)(F)F)c2)ccn1
endpointValue: ≥ 256 µg/mL
--
sampleSmiles: O=C([O-])c1ccc2oc(NC(=O)c3cc(Oc4ccc(F)c(F)c4)ccn3)nc2c1.[Na+]
endpointValue: 64 µg/mL
--
sampleSmiles: O=C(Nc1ncco1)c1cc(Oc2ccc(OC(F)(F)F)cc2)ccn1
endpointValue: 128 µg/mL
--
sampleSmiles: O=C(Nc1ncco1)c1cc(-c2ccc(OC(F)(F)F)cc2)ccn1
endpointValue: 125 µg/mL
--
sampleSmiles: O=C([O-])c1ccc2oc(NC(=O)c3cc(Oc4cccc(OC(F)(F)F)c4)ccn3)nc2c1.[Na+]
endpointValue: 16 µg/mL

May I ask what MIC has been recorded for O=C(Nc1ncco1)c1cc(-c2ccc(F)c(F)c2)ccn1 ?
128 µg/mL

May I ask what MIC has been recorded for O=C(Nc1ncco1)c1ccnc(-c2ccc(Cl)c(Cl)c2)c1 ?
25 µg/mL

May I ask what MIC has been recorded for O=C(Nc1ncco1)c1cc(-c2cccc(F)c2)ccn1 ?
64 µg/mL

May I ask what MIC has been recorded for O=C(Nc1ncco1)c1cc(-c2cc(F)cc(F)c2)ccn1 ?
64 µg/mL

May I ask what MIC has been recorded for O=C(Nc1ncco1)c1cc(-c2ccc(Cl)c(Cl)c2)ccn1 ?
128 µg/mL

###

MIC listing for selected compounds.
- System: Veillonella
- testProtocol: Antibacterial activity against gut Veillonella sp HM-49 assessed as reduction in bacterial growth measured after 48 hrs by CLSI based broth microdilution method
- Type: organism-based
- conditionContext: in vitro
# value in µg/mL; strip the unit string

Worked cases, answers included:
compound: O=C([O-])c1ccc2oc(NC(=O)c3cc(Oc4cccc(OC(F)(F)F)c4)ccn3)nc2c1.[Na+]
MIC, µg/mL: 16
--
compound: O=C(Nc1ncco1)c1cc(Oc2cccc(OC(F)(F)F)c2)ccn1
MIC, µg/mL: 16
--
compound: O=C(Nc1ncco1)c1ccnc(-c2ccc(Cl)c(Cl)c2)c1
MIC, µg/mL: 4

May I ask what MIC has been recorded for CCc1c(Cl)c(O)c(Cl)c(O)c1C(=O)O[C@H]1[C@H](O)[C@H](OC)[C@H](OC/C2=C\C=C\C[C@H](O)/C(C)=C/[C@H](CC)[C@@H](O[C@@H]3OC(C)(C)[C@@H](OC(=O)C(C)C)[C@H](O)[C@@H]3O)/C(C)=C/C(C)=C/C[C@@H]([C@@H](C)O)OC2=O)O[C@@H]1C [FIDAXOMICIN] ?
8

May I ask what MIC has been recorded for Cc1ncc([N+](=O)[O-])n1CCO [METRONIDAZOLE] ?
2

May I ask what MIC has been recorded for O=C(Nc1ncco1)c1cc(-c2ccc(Cl)c(Cl)c2)ccn1 ?
16

###

- testProtocol: Ratio of drug excretion in CD-1 mouse feces to MIC for antibacterial activity against Clostridium difficile ATCC 43255
- Assay type: toxicity
- conditionContext: in vivo
recordedEndpoint: Ratio
# respond with the number and nothing more

Worked cases, answers included:
sampleSmiles: O=C(Nc1ncco1)c1cc(-c2ccc(Cl)c(Cl)c2)ccn1
endpointValue: 6.6

sampleSmiles: O=C(Nc1ncco1)c1ccnc(-c2ccc(Cl)c(Cl)c2)c1
endpointValue: 11

sampleSmiles: O=C(Nc1ncco1)c1cc(Oc2cccc(OC(F)(F)F)c2)ccn1
endpointValue: 49

sampleSmiles: O=C([O-])c1ccc2oc(NC(=O)c3cc(Oc4cccc(OC(F)(F)F)c4)ccn3)nc2c1.[Na+]
endpointValue: 108

sampleSmiles: O=C([O-])c1ccc2oc(NC(=O)c3cc(Oc4ccc(F)c(F)c4)ccn3)nc2c1.[Na+]
endpointValue: 7.4

Let's switch to this molecule now.
May I ask what Ratio has been recorded for O=C(Nc1ncco1)c1cc(Oc2cccc(F)c2)ccn1 ?
2.4
